biological target: Palmitoleoyl-protein carboxylesterase NOTUM (Homo sapiens, UniProt Q6P988, C330S); experiment: Inhibition of Notum (81 to 451 Cys330Ser) in HEK293T cells expressing TCF-LEF assessed as activation of Wnt signaling using WNT3A as substrate incubated for […] by Steady-Glo luciferase assay
Could you please report measured pEC50 for the items listed next?
In textbook form, pEC50 equals minus log to base ten of the concentration in mol/L.

Exercise: State, in one line, measured pEC50 of O=c1[nH]nc2ccc(Sc3ccc(Cl)cc3)nn12
Solution: 6.51

Exercise: State, in one line, measured pEC50 of O=c1[nH]nc2ccc(Sc3ccccc3C(F)(F)F)nn12
Solution: 6.03

Exercise: State, in one line, measured pEC50 of O=c1[nH]nc2ccc(Sc3cccc(Cl)c3Cl)nn12
Solution: 6.82

Exercise: State, in one line, measured pEC50 of O=c1[nH]nc2ccc(Sc3cccc(Cl)c3)nn12
Solution: 7.06

Exercise: State, in one line, measured pEC50 of O=c1[nH]nc2ccc(Sc3cccc(F)c3)nn12
Solution: 6.59

Exercise: State, in one line, measured pEC50 of O=c1[nH]nc2ccc(Sc3cccc(C(F)(F)F)c3)nn12
Solution: 6.72

Exercise: State, in one line, measured pEC50 of O=c1[nH]nc2ccc(Sc3ccccc3Cl)nn12
Solution: 6.14

Exercise: State, in one line, measured pEC50 of CSc1cccc(Sc2ccc3n[nH]c(=O)n3n2)c1
Solution: 6.42

Exercise: State, in one line, measured pEC50 of Cc1ccc(Sc2ccc3n[nH]c(=O)n3n2)cc1
Solution: 7.07

Exercise: State, in one line, measured pEC50 of COc1cccc(Sc2ccc3n[nH]c(=O)n3n2)c1
Solution: 6.85

Exercise: State, in one line, measured pEC50 of O=c1[nH]nc2ccc(Sc3ccccc3F)nn12
Solution: 5.96
